Reference for the values: BigSolDB 2.1

details: in methyl acetate, 323.15 K
quantity_measured: solubility (mole fraction)

Param item = `O=C(O)CC[C@H](NC(=O)OCC1c2ccccc2-c2ccccc21)C(=O)O` ; retrieve measured solubility (mole fraction).
0.00888

====

details: in ethyl acetate, 293.15 K
quantity_measured: solubility (mole fraction)
Numbers only.

// lookup solubility (mole fraction) for `O=C(O)CC[C@H](NC(=O)OCC1c2ccccc2-c2ccccc21)C(=O)O`
0.00296

====

details: in n-propanol, 283.15 K
quantity_measured: solubility (mole fraction)
Give bare numbers.

Reported solubility (mole fraction) for `O=C(O)CC[C@H](NC(=O)OCC1c2ccccc2-c2ccccc21)C(=O)O` : what is it?
0.0138

====

details: in dimethyl carbonate, 293.15 K
quantity_measured: solubility (mole fraction)

Reported solubility (mole fraction), compound `O=C(O)CC[C@H](NC(=O)OCC1c2ccccc2-c2ccccc21)C(=O)O` : ____
0.000736

====

details: in methyl acetate, 313.15 K
quantity_measured: solubility (mole fraction)
Give bare numbers.

Could you share which solubility (mole fraction) value was measured for `O=C(O)CC[C@H](NC(=O)OCC1c2ccccc2-c2ccccc21)C(=O)O` ?
0.00609

====

details: in n-pentanol, 323.15 K
quantity_measured: solubility (mole fraction)
One number for each entry.

Which solubility (mole fraction) value belongs to `O=C(O)CC[C@H](NC(=O)OCC1c2ccccc2-c2ccccc21)C(=O)O` ?
0.0221

====

details: in dimethyl carbonate, 288.15 K
quantity_measured: solubility (mole fraction)
One number for each entry.

Name the reported solubility (mole fraction) value associated with the compound `O=C(O)CC[C@H](NC(=O)OCC1c2ccccc2-c2ccccc21)C(=O)O`
0.000625
